The values you see were collected from the NIST ThermoML archive (doi:10.1016/j.jct.2017.08.004).

# Condition notes: 35 K; 101.33 kPa; Crystal; relaxation calorimetry
// boundary case: molar entropy equal to 10 J/K/mol maps to N; strictly smaller maps to Y

{"columns": ["Molecule", "Classification"],
 "data": [
  ["OC[C@@H](O)[C@@H](O)[C@H](O)[C@H](O)CO", "N"],
  ["O[C@H]1[C@H](O)[C@@H](O)[C@H](O)[C@@H](O)[C@H]1O [cis-1,2,3,5-trans-4,6-cyclohexanehexol]", "N"],
  ["OC[C@@H](O)[C@H](O)[C@@H](O)CO", "Y"],
  ["OC[C@@H](O)[C@@H](O)CO", "Y"]
]}

###

Parameter molar heat capacity at constant pressure: see the listing below.
# Test name: molar heat capacity at constant pressure
# Condition notes: 267.15 K; 101.33 kPa; Crystal; Small sample (50 mg) DSC
Measured parameter: molar heat capacity at constant pressure (J/K/mol)

{"columns": ["Compound", "Test value"],
 "data": [
  ["O[C@H]1[C@H](O)[C@@H](O)[C@H](O)[C@@H](O)[C@H]1O [cis-1,2,3,5-trans-4,6-cyclohexanehexol]", 194.11],
  ["OC[C@@H](O)C(O)[C@H](O)CO [D-arabitol]", 178.76],
  ["OC[C@@H](O)[C@H](O)[C@@H](O)CO [xylitol]", 186.68],
  ["OC[C@@H](O)[C@@H](O)CO [meso-1,2,3,4-butanetetrol]", 147.61],
  ["OC[C@H](O)C(O)[C@@H](O)CO [L-(-)-arabitol]", 185.69],
  ["OC[C@@H](O)[C@@H](O)[C@H](O)[C@H](O)CO [D-mannitol]", 207.11]
]}

###

Parameter molar heat capacity at constant pressure: see the listing below.
# Test name: molar heat capacity at constant pressure
# Condition notes: 330 K; 101.33 kPa; Crystal; Small sample (50 mg) DSC

{"columns": ["Compound", "Units of measure", "molar heat capacity at constant pressure"],
 "data": [
  ["O[C@H]1[C@H](O)[C@@H](O)[C@H](O)[C@@H](O)[C@H]1O [cis-1,2,3,5-trans-4,6-cyclohexanehexol]", "J/K/mol", 246.17],
  ["OC[C@H](O)C(O)[C@@H](O)CO [L-(-)-arabitol]", "J/K/mol", 237.4],
  ["OC[C@@H](O)[C@@H](O)[C@H](O)[C@H](O)CO", "J/K/mol", 258.9],
  ["OC[C@@H](O)[C@@H](O)CO", "J/K/mol", 184.34],
  ["OC[C@@H](O)C(O)[C@H](O)CO", "J/K/mol", 229.51],
  ["OC[C@@H](O)[C@H](O)[C@@H](O)CO", "J/K/mol", 236.23]
]}

###

# Test name: molar heat capacity at constant pressure
# Condition notes: 257.15 K; 101.33 kPa; Crystal; Small sample (50 mg) DSC

{"columns": ["Compound", "molar heat capacity at constant pressure [J/K/mol]"],
 "data": [
  ["O[C@H]1[C@H](O)[C@@H](O)[C@H](O)[C@@H](O)[C@H]1O [cis-1,2,3,5-trans-4,6-cyclohexanehexol]", 186.45],
  ["OC[C@@H](O)[C@@H](O)[C@H](O)[C@H](O)CO", 199.9],
  ["OC[C@@H](O)C(O)[C@H](O)CO", 172.29],
  ["OC[C@H](O)C(O)[C@@H](O)CO [L-(-)-arabitol]", 177.61],
  ["OC[C@@H](O)[C@@H](O)CO", 142.62],
  ["OC[C@@H](O)[C@H](O)[C@@H](O)CO", 180.21]
]}
